- experimental target: Escherichia coli DNA gyrase A/B tetramer (Escherichia coli (strain K12), UniProt P0AES4+P0AES6)
- measurement protocol: DNA gyrase supercoiling activity fluorescence polarisation assay
- Format: biochemical
- condition notes: 5 nM enzyme, relaxed plasmid, 0.3 mM ATP, ambient temperature; read-out: E. coli DNA gyrase supercoiling IC50
Assign labels as follows, please: True for IC50 below 3000 nM; False for IC50 equal to or exceeding 3000 nM.

{"compound": "CSc1noc2c(F)c3c(cc12)CC1(C(=O)NC(=O)NC1=O)[C@H]1[C@H](C)O[C@H](C)CN31 (relative stereo)", "answer label": "True"}
{"compound": "Cc1cnn(-c2noc3c(F)c4c(cc23)CC2(C(=O)NC(=O)NC2=O)[C@H]2[C@H](C)O[C@H](C)CN42)c1 (relative stereo)", "answer label": "True"}
{"compound": "C[C@@H]1CN2c3c(cc4c(N5CCN(C(=O)OC(C)(C)C)CC5)noc4c3F)CC3(C(=O)NC(=O)NC3=O)[C@H]2[C@H](C)O1 (relative stereo)", "answer label": "False"}
{"compound": "C[C@@H]1CN2c3c(nc4c(-c5cnc(Br)s5)noc4c3Cl)CC3(C(=O)NC(=O)NC3=O)[C@H]2[C@H](C)O1 (relative stereo)", "answer label": "False"}
{"compound": "C[C@@H]1CN2c3c(cc4c(-c5cncn5C)noc4c3F)CC3(C(=O)NC(=O)NC3=O)[C@H]2[C@H](C)O1 (relative stereo)", "answer label": "True"}
{"compound": "Cc1ccc(-c2noc3c(Cl)c4c(cc23)CC2(C(=O)NC(=O)NC2=O)[C@H]2[C@H](C)O[C@H](C)CN42)cn1 (relative stereo)", "answer label": "True"}
{"compound": "C[C@@H]1CN2c3c(cc4c(C#N)noc4c3F)CC3(C(=O)NC(=O)NC3=O)[C@H]2[C@H](C)O1 (relative stereo)", "answer label": "False"}
{"compound": "C[C@@H]1CN2c3c(cc4c(C(=O)N5CCC(F)(F)C5)noc4c3F)CC3(C(=O)NC(=O)NC3=O)[C@H]2[C@H](C)O1 (racemic)", "answer label": "True"}
{"compound": "COc1noc2c(F)c3c(cc12)CC1(C(=O)NC(=O)NC1=O)[C@H]1[C@H](C)O[C@H](C)CN31 (relative stereo)", "answer label": "True"}
{"compound": "C[C@@H]1CN2c3c(cc4c(N5CCCCCC5)noc4c3F)CC3(C(=O)NC(=O)NC3=O)[C@H]2[C@H](C)O1 (relative stereo)", "answer label": "False"}
{"compound": "CCNC(=O)c1noc2c(Cl)c3c(nc12)CC1(C(=O)NC(=O)NC1=O)[C@H]1[C@H](C)O[C@H](C)CN31 (relative stereo)", "answer label": "True"}
{"compound": "C[C@@H]1CN2c3c(cc4c(-c5ncccn5)noc4c3F)CC3(C(=O)NC(=O)NC3=O)[C@H]2[C@H](C)O1", "answer label": "True"}

----------
- experimental target: Escherichia coli DNA gyrase A/B tetramer (Escherichia coli (strain K12), UniProt P0AES4+P0AES6)
- measurement protocol: DNA gyrase supercoiling activity fluorescence polarisation assay
- Type: biochemical
- condition notes: 5 nM enzyme, relaxed plasmid, 0.3 mM ATP, ambient temperature; read-out: E. coli DNA gyrase supercoiling IC50
pIC50: −log10 of the molar value.
observed property: pIC50

{"compound": "Cc1noc(C)c1-c1noc2c(F)c3c(cc12)CC1(C(=O)NC(=O)NC1=O)[C@H]1[C@H](C)O[C@H](C)CN31 (relative stereo)", "observed property": "pIC50", "result number": 5.49}
{"compound": "C[C@@H]1CN2c3c(nc4c(-c5ccc(C#N)c(F)c5)noc4c3Cl)CC3(C(=O)NC(=O)NC3=O)[C@H]2[C@H](C)O1 (relative stereo)", "observed property": "pIC50", "result number": 6.22}
{"compound": "C[C@@H]1CN2c3c(cc4c(-n5cc(C(N)=O)cn5)noc4c3F)CC3(C(=O)NC(=O)NC3=O)[C@H]2[C@H](C)O1 (relative stereo)", "observed property": "pIC50", "result number": 5.66}
{"compound": "CON(C)C(=O)c1noc2c(F)c3c(cc12)CC1(C(=O)NC(=O)NC1=O)[C@H]1[C@H](C)O[C@H](C)CN31 (relative stereo)", "observed property": "pIC50", "result number": 5.64}
{"compound": "Cc1ncc(-c2noc3c(Cl)c4c(nc23)CC2(C(=O)NC(=O)NC2=O)[C@H]2[C@H](C)O[C@H](C)CN42)s1 (relative stereo)", "observed property": "pIC50", "result number": 5.70}
{"compound": "C[C@H]1CN2c3c(nc4c(-c5nccs5)noc4c3Cl)CC3(C(=O)NC(=O)NC3=O)[C@@H]2[C@@H](C)O1", "observed property": "pIC50", "result number": 4.08}

----------
- experimental target: Escherichia coli DNA gyrase A/B tetramer (Escherichia coli (strain K12), UniProt P0AES4+P0AES6)
- measurement protocol: DNA gyrase supercoiling activity fluorescence polarisation assay
- Format: biochemical
- condition notes: 5 nM enzyme, relaxed plasmid, 0.3 mM ATP, ambient temperature; read-out: E. coli DNA gyrase supercoiling IC50
pIC50: −log10 of the molar value.

{"compound": "C[C@@H]1CN2c3c(cc4c(-c5ncnn5C)noc4c3F)CC3(C(=O)NC(=O)NC3=O)[C@H]2[C@H](C)O1 [Example 178]", "pIC50": 5.89}
{"compound": "C[C@@H]1CN2c3c(cc4c(-n5nccn5)noc4c3F)CC3(C(=O)NC(=O)NC3=O)[C@H]2[C@H](C)O1 (racemic) [Example 56]", "pIC50": 6.15}
{"compound": "CC(=O)NC1CN(C(=O)c2noc3c(F)c4c(cc23)CC2(C(=O)NC(=O)NC2=O)[C@H]2[C@H](C)O[C@H](C)CN42)C1 (relative stereo) [Example 160]", "pIC50": 6.00}
{"compound": "CNC(=O)c1noc2c(Cl)c3c(nc12)CC1(C(=O)NC(=O)NC1=O)[C@H]1[C@H](C)O[C@H](C)CN31 (relative stereo) [Example 125]", "pIC50": 6.15}
{"compound": "C[C@@H]1CN2c3c(cc4c(C5CC5)noc4c3Cl)CC3(C(=O)NC(=O)NC3=O)[C@H]2[C@H](C)O1 (racemic) [Example 39]", "pIC50": 6.22}
{"compound": "C[C@@H]1CN2c3c(cc4c(Cn5cncn5)noc4c3F)CC3(C(=O)NC(=O)NC3=O)[C@H]2[C@H](C)O1 (relative stereo) [Example 81]", "pIC50": 5.52}
{"compound": "CCCNc1noc2c(F)c3c(cc12)CC1(C(=O)NC(=O)NC1=O)[C@H]1[C@H](C)O[C@H](C)CN31 (relative stereo) [Example 31]", "pIC50": 5.66}
{"compound": "Cc1c2c(cc3c(-c4cnccn4)noc13)CC1(C(=O)NC(=O)NC1=O)[C@H]1[C@H](C)O[C@H](C)CN21 (relative stereo) [Example 101]", "pIC50": 5.85}
{"compound": "C[C@@H]1CN2c3c(cc4c(C(=O)N5CC(F)(F)C5)noc4c3F)CC3(C(=O)NC(=O)NC3=O)[C@H]2[C@H](C)O1 (relative stereo) [Example 95]", "pIC50": 6.52}
{"compound": "CC(=O)Nc1noc2c(F)c3c(cc12)CC1(C(=O)NC(=O)NC1=O)[C@H]1[C@H](C)O[C@H](C)CN31 (relative stereo) [Example 6]", "pIC50": 6.10}
{"compound": "CNC(=O)c1noc2c(F)c3c(cc12)CC1(C(=O)NC(=O)NC1=O)[C@H]1[C@H](C)O[C@H](C)CN31 (relative stereo) [Example 140]", "pIC50": 5.96}
{"compound": "COCC(COC)(COC)NC(=O)c1noc2c(F)c3c(cc12)CC1(C(=O)NC(=O)NC1=O)[C@H]1[C@H](C)O[C@H](C)CN31 (relative stereo) [Example 163]", "pIC50": 4.77}

----------
Recorded IC50 values for a group of compounds are listed next.
- experimental target: Escherichia coli DNA gyrase A/B tetramer (Escherichia coli (strain K12), UniProt P0AES4+P0AES6)
- measurement protocol: DNA gyrase supercoiling activity fluorescence polarisation assay
- Assay type: biochemical
- condition notes: 5 nM enzyme, relaxed plasmid, 0.3 mM ATP, ambient temperature; read-out: E. coli DNA gyrase supercoiling IC50
observed property: IC50 (nM)

{"compound": "C[C@@H]1CN2c3c(cc4c(-c5ccnc(N)n5)noc4c3F)CC3(C(=O)NC(=O)NC3=O)[C@H]2[C@H](C)O1", "observed property": "IC50", "value units": "nM", "result number": 500}
{"compound": "C[C@@H]1CN2c3c(cc4c(-n5cncn5)noc4c3F)CC3(C(=O)NC(=O)NC3=O)[C@@H]2[C@@H](C)O1", "observed property": "IC50", "value units": "nM", "result number": 20000}
{"compound": "C[C@@H]1CN2c3c(cc4c(C(=O)NCc5cccs5)noc4c3F)CC3(C(=O)NC(=O)NC3=O)[C@H]2[C@H](C)O1 (relative stereo)", "observed property": "IC50", "value units": "nM", "result number": 1500}
{"compound": "CCOC(=O)c1cnn(-c2noc3c(F)c4c(cc23)CC2(C(=O)NC(=O)NC2=O)[C@H]2[C@H](C)O[C@H](C)CN42)c1 (relative stereo)", "observed property": "IC50", "value units": "nM", "result number": 8500}
{"compound": "Cc1csc(-c2noc3c(Cl)c4c(nc23)CC2(C(=O)NC(=O)NC2=O)[C@H]2[C@H](C)O[C@H](C)CN42)n1 (relative stereo)", "observed property": "IC50", "value units": "nM", "result number": 2500}
{"compound": "C[C@@H]1CN2c3c(cc4c(C(=O)N(C)C)noc4c3F)CC3(C(=O)NC(=O)NC3=O)[C@H]2[C@H](C)O1 (relative stereo)", "observed property": "IC50", "value units": "nM", "result number": 2800}
